# Tested on: A3-KAW (B-Cell Non-Hodgkin's Lymphoma)
# assayComment: Bliss excess, mean over the matrix (fraction); higher = more synergy;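 also: after 72 h of two-drug dosing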
testReadout: Bliss excess

Observe how each entry below is paired with its result.
compound	measuredTarget	Bliss excess
CCN(CCO)CCCOc1ccc2c(Nc3cc(CC(=O)Nc4cccc(F)c4)[nH]n3)ncnc2c1 [AZD2811] + C[C@@H]1COCCN1C2=NC(=NC(=C2)C3(CC3)[S@](=N)(=O)C)C4=C5C=CNC5=NC=C4 [AZD6738] (first compound max 1 µM, 7x7, partner max 10 µM)	A3-KAW (B-Cell Non-Hodgkin's Lymphoma)	-0.0417
CCN(CCO)CCCOc1ccc2c(Nc3cc(CC(=O)Nc4cccc(F)c4)[nH]n3)ncnc2c1 [AZD2811] + O=C(c1cc(Cc2n[nH]c(=O)c3ccccc23)ccc1F)N1CCN(C(=O)C2CC2)CC1 [Olaparib] (first compound max 1 µM, 7x7, partner max 10 µM)	A3-KAW (B-Cell Non-Hodgkin's Lymphoma)	0.0053

Considering COc1cccc(OCCCN)c1-c1cc(Nc2cnc(C#N)cn2)n[nH]1 [Prexasertib] + C[C@@H]1COCCN1C2=NC(=NC(=C2)C3(CC3)[S@](=N)(=O)C)C4=C5C=CNC5=NC=C4 [AZD6738] (first compound max 1 µM, 7x7, partner max 10 µM) , its Bliss excess with A3-KAW (B-Cell Non-Hodgkin's Lymphoma) was recorded as 0.0104

Considering COc1cccc(OCCCN)c1-c1cc(Nc2cnc(C#N)cn2)n[nH]1 [Prexasertib] + C=CCn1c(=O)c2cnc(Nc3ccc(N4CCN(C)CC4)cc3)nc2n1-c1cccc(C(C)(C)O)n1 [AZD1775] (first compound max 1 µM, partner max 1 µM) , its Bliss excess with A3-KAW (B-Cell Non-Hodgkin's Lymphoma) was recorded as 0.0424

###

# Test system: ECC10 (Gastric Carcinoma)
# assayComment: Bliss excess, mean over the matrix (fraction); higher = more synergy
Use 0.06 as the dividing line for Bliss excess, with the line itself on the Yes side and lower values as No.

Reference set (5 entries):
compound	labelValue
C=CCn1c(=O)c2cnc(Nc3ccc(N4CCN(C)CC4)cc3)nc2n1-c1cccc(C(C)(C)O)n1 [AZD1775] + CCc1c2c(nc3ccc(O)cc13)-c1cc3c(c(=O)n1C2)COC(=O)[C@]3(O)CC [SN-38] (first compound max 1 µM, partner max 0.3 µM)	No
Cn1cnc2c(F)c(Nc3ccc(Br)cc3Cl)c(C(=O)NOCCO)cc21 [Selumetinib] + C[C@@H]1COCCN1C2=NC(=NC(=C2)C3(CC3)[S@](=N)(=O)C)C4=C5C=CNC5=NC=C4 [AZD6738] (first compound max 10 µM, 7x7, partner max 10 µM)	No
COc1nnc2ccc(N3CCC(c4ccc(OCCN5CCN(C)C(=O)[C@H]5C)cc4)CC3)nn12 [AZD5153] + C=CCn1c(=O)c2cnc(Nc3ccc(N4CCN(C)CC4)cc3)nc2n1-c1cccc(C(C)(C)O)n1 [AZD1775] (first compound max 1 µM, partner max 1 µM)	No
N#Cc1cnc(Nc2cc(NC[C@H]3CNCCO3)c(C(F)(F)F)cn2)cn1 [SRA737] + Nc1ccn([C@@H]2O[C@H](CO)[C@@H](O)C2(F)F)c(=O)n1 [Gemcitabine] (first compound max 10 µM, 7x7, partner max 0.3 µM)	Yes
Cn1cnc2c(F)c(Nc3ccc(Br)cc3Cl)c(C(=O)NOCCO)cc21 [Selumetinib] + CCN(CCO)CCCOc1ccc2c(Nc3cc(CC(=O)Nc4cccc(F)c4)[nH]n3)ncnc2c1 [AZD2811] (first compound max 10 µM, 7x7, partner max 1 µM)	No

Consider the record given below.
INPUT: Would you say Cc1nc(-c2cn3c(n2)-c2ccc(-c4cnn(C(C)(C)C(N)=O)c4)cc2OCC3)n(C(C)C)n1 [Taselisib] + O=C(Nc1ccc2[nH]nc(-c3ccncc3)c2c1)[C@@H]1CCN(CC(=O)N2CCN(c3ccc(-c4ncccn4)cc3)CC2)C1 [SCH772984] (first compound max 10 µM, 7x7, partner max 5 µM) shows Bliss excess at minimum 0.06?
OUTPUT: Yes
